The values you see were collected from PubChem BioAssay AID1851.

test_target: Cytochrome P450 2D6 (Homo sapiens)
assay_protocol: Cytochrome panel assay with activity outcomes
condition_details: recombinant CYP, pro-luciferin dealkylation, luminescence, p450-cyp2d6; series mostly up to 57.1 µM
The whole screen tested about 16,000 compounds, of which about 2,600 (16%) were called active. Roughly 20% stayed inconclusive and do not appear here. Calls come from the whole dose curve; as a rule, active = well fitted curve in the direction sought with a large enough effect; inconclusive = small, poorly fitted or top-dose-only effect, or effect the other way; inactive = no such curve, though single readings can be large or run the other way. These entries were drawn from the full list.
Mark one answer only. Choices: active, inactive

As a guide, the following entries are already answered.
CCCCn1c(SC(C)C(N)=O)nc2cc(C(=O)OC)ccc2c1=O (stereo not drawn)    inactive
COC(=O)c1ccc(NC(=O)c2cc3sccc3n2C)cc1    inactive
C/C(=N\NC(=O)Cc1ccc(Cl)cc1)c1ccccn1    inactive
CCOC(=O)N1CCC(NC(=O)CCC(=O)N2CC(C)Oc3ccc(C)cc32)CC1 (stereo not drawn)    inactive
C#C[C@@]1(OC(C)=O)CC[C@@H]2[C@@H]3CCC4=C[C@@H](OC(C)=O)CC[C@H]4[C@H]3CC[C@]21C    inactive

For this molecule, state the assay outcome: `COc1ccc(-n2c(-c3cnccn3)n[nH]c2=S)cc1`
inactive

For this molecule, state the assay outcome: `O=C(c1cc2sccc2n1Cc1ccccc1)N1CCN(c2nc3ccccc3s2)CC1`
inactive

For this molecule, state the assay outcome: `Cc1nn(CC(=O)NCc2ccccc2)c(C)c1[N+](=O)[O-]`
inactive

For this molecule, state the assay outcome: `C/C(=N\NC(=O)CSCc1ccc(Cl)cc1)c1ccc2c(c1)OCCO2`
active

For this molecule, state the assay outcome: CC(C)CCn1nnnc1C(c1ccc(F)cc1)N1CCN(C(=O)c2ccco2)CC1 (stereo not drawn)
active

For this molecule, state the assay outcome: `O=C(Nc1nccs1)c1sc2cc(Cl)ccc2c1Cl`
inactive

For this molecule, state the assay outcome: S=C1NC2=C(C(c3ccc(Br)cc3)N1)N1CCC2CC1 (stereo not drawn)
inactive

For this molecule, state the assay outcome: `O=C(CSCc1ccc(Cl)cc1)Nc1nccs1`
active

For this molecule, state the assay outcome: O=C(CN1C(=O)C2C3C=CC(C3)C2C1=O)Nc1ccc2c(c1)OCCO2 (stereo not drawn)
inactive

For this molecule, state the assay outcome: `Cc1nnc(SCC(=O)Nc2nccs2)[nH]c1=O`
inactive

For this molecule, state the assay outcome: `Cc1cc(C(C)(C)C)cc(CNC2CCCCC2)c1O`
active

###

test_target: Cytochrome P450 2D6 (Homo sapiens) (UniProt P10635)
Sequence (P10635 whole entry, looked up): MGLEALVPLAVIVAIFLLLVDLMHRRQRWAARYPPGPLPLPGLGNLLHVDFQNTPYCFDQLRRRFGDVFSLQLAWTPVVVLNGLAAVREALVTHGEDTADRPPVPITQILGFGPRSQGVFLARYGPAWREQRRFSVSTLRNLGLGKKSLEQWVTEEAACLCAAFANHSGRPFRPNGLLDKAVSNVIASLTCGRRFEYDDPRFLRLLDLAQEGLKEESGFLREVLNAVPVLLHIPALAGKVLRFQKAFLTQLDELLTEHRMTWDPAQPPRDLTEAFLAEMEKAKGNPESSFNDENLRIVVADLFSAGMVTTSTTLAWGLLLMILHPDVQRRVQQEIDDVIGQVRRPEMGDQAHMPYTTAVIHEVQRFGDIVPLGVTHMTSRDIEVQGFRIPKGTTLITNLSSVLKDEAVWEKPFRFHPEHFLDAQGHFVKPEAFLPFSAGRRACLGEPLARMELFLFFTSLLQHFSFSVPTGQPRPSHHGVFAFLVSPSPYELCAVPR
assay_protocol: Cytochrome panel assay with activity outcomes
condition_details: recombinant CYP, pro-luciferin dealkylation, luminescence, p450-cyp2d6; series mostly up to 57.1 µM
Out of some 16,000 compounds screened, about 2,600 (16%) were called active. About 20% were inconclusive and are not listed. The list is a sample of the results.
endpoint_name: AC50

Some entries whose results are on file:
Cc1ccc(NS(=O)(=O)c2cc(C(=O)N3CCc4ccccc4C3)ccc2Cl)cc1    inactive
CCCCCCCCCCCCCCCCCCc1ccc(C(=O)/C=C\C(=O)O)cc1    inactive
Cc1cc(Cl)ccc1OCC(=O)N/N=C1\CCCc2ccccc21    inactive
CCSc1nnc(-c2ccc(Cl)cc2)c2ccccc12    inactive
O=C(NCc1ccccn1)C1CC(c2ccc(Cl)c(Cl)c2)=NO1 (centres undefined)    inactive
Nc1ccc(S(=O)(=O)Nc2nccs2)cc1    inactive
CC(=O)Nc1ccc(Nc2ncnc3c2cnn3-c2ccccc2)cc1    inactive
Cc1cc(Cl)ccc1OCC(=O)NCc1ccncc1    2.82 µM (active)

Write down the reported AC50 of `CSc1ccccc1NC(=O)CSCc1ccc(C)cc1` , test system: Cytochrome P450 2D6 (Homo sapiens) (UniProt P10635).
14.1 µM (active)

Write down the reported AC50 of CC1CCCC(n2c(=S)[nH]c3ccccc3c2=O)C1C (centres undefined) , test system: Cytochrome P450 2D6 (Homo sapiens) (UniProt P10635).
inactive

Write down the reported AC50 of `COc1ccc(NS(=O)(=O)c2ccc(I)cc2)cc1N1CCN(C)CC1` , test system: Cytochrome P450 2D6 (Homo sapiens) (UniProt P10635).
inactive

Write down the reported AC50 of `Cc1nc2cnc(N(C)C)nc2n(Cc2ccc(F)cc2)c1=O` , test system: Cytochrome P450 2D6 (Homo sapiens) (UniProt P10635).
inactive

Write down the reported AC50 of `O=[N+]([O-])c1ccc(N2CCCCC2)c(Cl)c1N1CCCCC1` , test system: Cytochrome P450 2D6 (Homo sapiens) (UniProt P10635).
inactive

Write down the reported AC50 of `O=c1c(-c2ccc(Cl)cc2)nc2cnc(N3CCOCC3)nc2n1CCc1ccccc1` , test system: Cytochrome P450 2D6 (Homo sapiens) (UniProt P10635).
inactive

Write down the reported AC50 of `Cc1ccccc1C(=O)N1CCc2ccccc2C1` , test system: Cytochrome P450 2D6 (Homo sapiens) (UniProt P10635).
inactive

Write down the reported AC50 of COc1ccc(C2=NOC(C(=O)NCCN3CCOCC3)C2)cc1 (centres undefined) , test system: Cytochrome P450 2D6 (Homo sapiens) (UniProt P10635).
inactive

Write down the reported AC50 of C[C@@H]1Cc2ccccc2N1NC(=O)c1ccc(Cl)c(S(N)=O)c1 (some centres undefined) , test system: Cytochrome P450 2D6 (Homo sapiens) (UniProt P10635).
inactive

Write down the reported AC50 of `CC(=O)c1cccc(NC(=O)CSCc2ccccc2)c1` , test system: Cytochrome P450 2D6 (Homo sapiens) (UniProt P10635).
14.1 µM (active)

Write down the reported AC50 of CCc1cc(C(=O)NNC(=S)NCC2CCCO2)cs1 (centres undefined) , test system: Cytochrome P450 2D6 (Homo sapiens) (UniProt P10635).
inactive

Write down the reported AC50 of `O=C(c1ccc(CN2CCc3ccccc3C2)cc1)N1CCc2ccccc2C1` , test system: Cytochrome P450 2D6 (Homo sapiens) (UniProt P10635).
2 µM (active)

Write down the reported AC50 of `CS(=O)(=O)c1nc(-c2ccccc2)cc(-c2ccccc2)c1C#N` , test system: Cytochrome P450 2D6 (Homo sapiens) (UniProt P10635).
inactive

Write down the reported AC50 of `Fc1ccc(-c2cn3cc(C(F)(F)F)cc(Cl)c3n2)cc1` , test system: Cytochrome P450 2D6 (Homo sapiens) (UniProt P10635).
inactive

Write down the reported AC50 of `CC(C)n1cc(/C=C2/SC(=O)N(CC(=O)Nc3ccc4c(c3)OCO4)C2=O)c2ccccc21` , test system: Cytochrome P450 2D6 (Homo sapiens) (UniProt P10635).
inactive

Write down the reported AC50 of `Cc1ccc(OCC(=O)Nc2ccccc2-c2ccccc2)cc1` , test system: Cytochrome P450 2D6 (Homo sapiens) (UniProt P10635).
inactive
